Molecular target: PDE 1 (Ca-calmodulin activatable PDE)
Test: Phosphodiesterase inhibiting activity, PDE 1
Conditions: isozyme from dog heart; 1 μM [3H]-cAMP or [3H]-cGMP; read-out: Inhibition of PDE Activity: IC50 PDE 1
Method: Pharmacological Test Example 1: Phosphodiesterase Inhibiting Activity Cyclic nucleotide phosphodiesterases from human platelets and from the heart and kidney of a dog were eluted by the concentration gradient method with 70 to 1000 mM of sodium acetate on DEAE-cellulose column chromatography (Whatman Co. Ltd., DE-52, φ3.2×13 cm) according to the method of Thompson and others (Thompson W. J., et al., Advances in Cyclic Nucleotide Research: 10, 69-92, 1979), and separated into isozymes. […]
pIC50: −log10 of the molar value.

# MOLECULE, pIC50
data = [
    ("COc1ccc(CNc2nc(-c3ccco3)nc3sc4c(c23)CCN(C)C4)cc1Cl [1-6]", 5.26),
    ("COc1ccc(CNc2nc(-c3ccncc3)nc3sc4c(c23)CCN(C)C4)cc1Cl [1-7]", "< 5.00"),
    ("COc1ccc(CNc2nc(C(=O)NCc3ccccc3)nc3sc4c(c23)CCN(C)C4)cc1Cl [1-79]", 6.17),
    ("COc1ccc(CNc2nc(C(=O)NC3CCCCC3)nc3sc4c(c23)CCN(C)C4)cc1Cl [1-63]", "< 5.00"),
    ("COc1ccc(CNc2nc(C(=O)Nc3nccs3)nc3sc4c(c23)CCN(C)C4)cc1Cl [1-57]", "< 5.00"),
    ("CCOC(=O)N1CCc2c(sc3nc(-c4ccncc4)nc(NCc4ccc(OC)c(Cl)c4)c23)C1 [1-5]", "< 5.00"),
    ("COc1ccc(CNc2nc(C(=O)Nc3ccc(-n4ccnc4)cc3)nc3sc4c(c23)CCN(C)C4)cc1Cl [1-59]", "< 5.00"),
    ("COC(=O)c1ccc(NC(=O)c2nc(NCc3ccc(OC)c(Cl)c3)c3c4c(sc3n2)CN(C)CC4)cc1 [1-80]", "< 5.00"),
    ("CCOC(=O)Cc1nc(NCc2ccc(OC)c(Cl)c2)c2c3c(sc2n1)C(=O)N(C(C)C)CC3 [2-10]", "< 5.00"),
    ("COc1ccc(CNc2nc(C(=O)Nc3ccccc3Cl)nc3sc4c(c23)CCN(C)C4)cc1Cl [1-60]", "< 5.00"),
    ("COc1ccc(CNc2nc(C(=O)Nc3ccccc3)nc3sc4c(c23)CCN(C)C4)cc1Cl [1-72]", "< 5.00"),
    ("COc1ccc(CNc2nc(C(=O)NC3CC3)nc3sc4c(c23)CCN(C(C)C)C4)cc1Cl [1-76]", "< 5.00"),
    ("COc1ccc(CNc2nc(C(=O)Nc3ccccc3)nc3sc4c(c23)CCCC4)cc1Cl [3-2]", "< 5.00"),
    ("CCOc1ccccc1NC(=O)c1nc(NCc2ccc(OC)c(Cl)c2)c2c3c(sc2n1)CN(C(C)C)CC3 [1-55]", "< 5.00"),
    ("COc1ccc(CNc2nc(C(=O)Nc3ccc(Cl)cc3)nc3sc4c(c23)CCN(C)C4)cc1Cl [1-61]", "< 5.00"),
    ("COc1ccc(CNc2nc(C(=O)Nc3ccccc3)nc3sc4c(c23)CCN(C(C)C)C4)cc1Cl [1-75]", "< 5.00"),
    ("COc1ccc(NC(=O)c2nc(NCc3ccc(OC)c(Cl)c3)c3c4c(sc3n2)CN(C)CC4)cc1 [1-62]", "< 5.00"),
]
